System: scopolamine-induced amnesia of rats
Protocol text: Effects on scopolamine-induced amnesia, passive avoidance task (oral administration)
Type: in vivo, rat
Run parameters: Rattus norvegicus, po; dose 1 mg/kg p.o., 60 min before trial; scopolamine hydrobromide 2 mg/kg i.p.; latency 24 h after shock; male Sprague Dawley rats; read-out: Inhibitory rate (%)
Readout kind: inhibition in vivo at 1 mg/kg (%)

Compound | Result
O=C1N(c2ccccc2)c2ccccc2C1(Cc1ccncc1)Cc1ccncc1 [compound A, reference compound] | 20.9
CCCC1(CCC)C(=O)N=C2CCCCN21 | 61.5
CCCCC1(CCCC)C(=O)N=C2CCCCN21 | 49.6
O=C1N=C2SC=CN2C1(Cc1ccc(F)cc1)Cc1ccc(F)cc1 | 56.1
Nc1c2c(nc3ccccc13)CCCC2 [compound B, 9-amino-1,2,3,4-tetrahydro-acridine, reference compound] | 54.9

Origin of values: patent US7767824B2
